src = the supplement of paper PMC7877785

assay text: self-splicing fitness, log relative to wild type (ln ratio); higher = more splicing; Tetrahymena group I intron in knt gene, E. coli kanamycin selection, DiMSum; sequences stand for … in CUCUCU…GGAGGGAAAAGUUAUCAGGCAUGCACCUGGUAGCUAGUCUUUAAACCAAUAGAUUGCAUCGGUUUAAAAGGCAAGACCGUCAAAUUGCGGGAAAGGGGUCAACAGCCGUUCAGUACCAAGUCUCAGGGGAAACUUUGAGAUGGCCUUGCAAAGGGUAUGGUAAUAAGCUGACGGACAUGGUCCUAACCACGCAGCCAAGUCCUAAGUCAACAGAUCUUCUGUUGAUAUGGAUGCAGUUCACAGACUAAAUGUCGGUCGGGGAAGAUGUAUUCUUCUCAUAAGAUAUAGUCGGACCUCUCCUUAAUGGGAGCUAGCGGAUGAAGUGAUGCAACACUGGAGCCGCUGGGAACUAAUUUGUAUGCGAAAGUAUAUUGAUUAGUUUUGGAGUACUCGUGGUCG;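 note: selection with 25 µg/mL kanamycin versus none on LB agar overnight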
assay context: 37 °C
Mark not met for self-splicing fitness (ln) values under -2, and met for everything at or above.

Is it the case that GUUUAGCAAUAUUACGCCCA has self-splicing fitness (ln) reaching or exceeding -2?
met

Has UGUAAGCAAUAUUACGGCCU a recorded self-splicing fitness (ln) greater than or equal to -2?
met

Evaluate AAAUAGCAAUAUUACGCUGC : self-splicing fitness (ln) at minimum -2?
met

Item GAGCAGCAAUAUUACGGCCG with self-splicing fitness (ln) of -2 or above?
met

Is self-splicing fitness (ln) for GGCCAGCAAUAUUACGUAGC at or above -2?
met

----------
assay text: self-splicing fitness, log relative to wild type (ln ratio); higher = more splicing; Tetrahymena group I intron in knt gene, E. coli kanamycin selection, DiMSum; sequences stand for … in CUCUCU…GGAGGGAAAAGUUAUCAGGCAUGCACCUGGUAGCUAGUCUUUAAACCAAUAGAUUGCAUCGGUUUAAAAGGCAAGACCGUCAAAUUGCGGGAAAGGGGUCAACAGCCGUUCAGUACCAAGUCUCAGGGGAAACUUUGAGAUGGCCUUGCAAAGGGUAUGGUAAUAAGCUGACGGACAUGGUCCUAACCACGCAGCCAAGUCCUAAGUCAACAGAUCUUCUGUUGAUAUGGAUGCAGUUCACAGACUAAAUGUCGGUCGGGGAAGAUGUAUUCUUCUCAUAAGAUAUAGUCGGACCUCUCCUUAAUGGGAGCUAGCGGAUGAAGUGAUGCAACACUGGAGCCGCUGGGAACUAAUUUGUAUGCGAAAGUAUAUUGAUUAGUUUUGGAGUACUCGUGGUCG
assay context: 37 °C
Output schema: class label derived from self-splicing fitness (ln). Mapping: low range: < -2; mid range: ≥ -2 and < -0.4; high range: ≥ -0.4

Observe how each entry below is paired with its result.
Place this sequence in its band: GACUAGCAAUAUUACGUCUG
mid range

Textbook exercise: identify the category of the sequence given here, GUACAGCAAUAUUACGAGCU , according to its measured value.
mid range

Determine which band this sequence sits in: ACGCAGCAAUAUUACGCUGU
low range

Lab note: sort GACUAGCAAUAUUACGGCCA into the matching self-splicing fitness (ln) band.
high range

Category of AAAAAGCAAUAUUACGCGCU :
high range

Band assignment needed for CAGGAGCAAUAUUACGACAA please.
mid range

Further cases:
Could you tell me which band CCAUAGCAAUAUUACGACAG belongs to?
mid range

Which self-splicing fitness (ln) category applies to AGAUAGCAAUAUUACGAACU here?
high range

State the band of ACGCAGCAAUAUUACGUGCC
mid range

Which bin should I file GGAAAGCAAUAUUACGUGUG under?
mid range

Sort UAUUAGCAAUAUUACGCUUC into one of the categories.
low range

Band for UAUAAGCAAUAUUACGCACG ?
mid range

----------
assay text: self-splicing fitness, log relative to wild type (ln ratio); higher = more splicing; Tetrahymena group I intron in knt gene, E. coli kanamycin selection, DiMSum; sequences stand for … in CUCUCU…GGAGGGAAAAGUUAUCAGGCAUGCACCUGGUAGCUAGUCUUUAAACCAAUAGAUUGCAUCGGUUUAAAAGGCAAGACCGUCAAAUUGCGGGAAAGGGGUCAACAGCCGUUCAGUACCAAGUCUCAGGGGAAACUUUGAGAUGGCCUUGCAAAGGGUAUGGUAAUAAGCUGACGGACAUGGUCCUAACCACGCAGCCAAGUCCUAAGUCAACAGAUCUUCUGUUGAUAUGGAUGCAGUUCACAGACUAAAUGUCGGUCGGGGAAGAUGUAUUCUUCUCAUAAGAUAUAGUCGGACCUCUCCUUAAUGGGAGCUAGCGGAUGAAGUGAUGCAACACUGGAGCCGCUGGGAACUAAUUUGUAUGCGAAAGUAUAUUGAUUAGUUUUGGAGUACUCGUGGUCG
assay context: 30 °C
I'd be grateful if you could share measured self-splicing fitness (ln) for these entries.
Answers are plain numbers.

Your task in this section: give self-splicing fitness (ln) for each listed record.
1. GAUGAGCAAUAUUACGGUCA
2. GUUCAGCAAUAUUACGCUAU
3. GCCAAGCAAUAUUACGCCGC
4. GACGAGCAAUAUUACGCGAA
5. UGGGAGCAAUAUUACGUGCC
6. UGAAAGCAAUAUUACGUCGC

1. -3.49
2. -1.32
3. -2.92
4. -2.91
5. -2.29
6. -3.49

State recorded self-splicing fitness (ln) for all listed sequences.
1. GUCUAGCAAUAUUACGCCCG
2. AGACAGCAAUAUUACGAAAC
3. AUUCAGCAAUAUUACGUUUA
4. CGGUAGCAAUAUUACGAAUG

1. -0.678
2. -3.76
3. -1.18
4. -0.573

Give measured self-splicing fitness (ln) for every item shown.
1. ACCUAGCAAUAUUACGCCGG
2. UACUAGCAAUAUUACGUCUC
3. UGAUAGCAAUAUUACGUAGG
4. ACUCAGCAAUAUUACGGAAA
5. ACAUAGCAAUAUUACGGAAU
6. UCCGAGCAAUAUUACGGAGG

1: -0.962; 2: -3.59; 3: -1.66; 4: -1.61; 5: -3.72; 6: -2.66

Please go through the list and note self-splicing fitness (ln) for each sequence.
1. GACGAGCAAUAUUACGACUG
2. UCAUAGCAAUAUUACGCGAG
3. GGAUAGCAAUAUUACGCUAA
4. AGCGAGCAAUAUUACGUGUU
5. GAUGAGCAAUAUUACGGCUC
6. ACGAAGCAAUAUUACGUAUC

-2.47
-1.52
-2.07
-3.06
-0.914
-4.38

Report self-splicing fitness (ln) for each item below.
1. GUUCAGCAAUAUUACGGCGA
2. CCCCAGCAAUAUUACGACUU
3. AAGGAGCAAUAUUACGGGAC

1. -1.16
2. -3.29
3. -2.34

Hey, can you go through the list below and give me self-splicing fitness (ln) for every item?
1. GCCGAGCAAUAUUACGAGAU
2. CACGAGCAAUAUUACGCUUC
3. GACCAGCAAUAUUACGGGAA
4. UGUAAGCAAUAUUACGGACU

1: -2.65; 2: -3.96; 3: -0.695; 4: -0.351

Please look at the items below and tell me self-splicing fitness (ln) for each one, in order.
1. CAUGAGCAAUAUUACGCUAG
2. CUUCAGCAAUAUUACGGAUA
3. GCACAGCAAUAUUACGGUGG
4. GAUGAGCAAUAUUACGCCAA

[-3.07, -1.97, -1.54, -2.45]

Count: 4. Required value per item: self-splicing fitness (ln).
1. CCCCAGCAAUAUUACGCUAA
2. GCCAAGCAAUAUUACGAAAA
3. AGCCAGCAAUAUUACGCGAA
4. UACUAGCAAUAUUACGCACA

1. -3.55
2. -2.45
3. -0.797
4. -0.646

----------
Consider the following sequences; for each one, report its self-splicing fitness (ln).
assay text: self-splicing fitness, log relative to wild type (ln ratio); higher = more splicing; Tetrahymena group I intron in knt gene, E. coli kanamycin selection, DiMSum; sequences stand for … in CUCUCU…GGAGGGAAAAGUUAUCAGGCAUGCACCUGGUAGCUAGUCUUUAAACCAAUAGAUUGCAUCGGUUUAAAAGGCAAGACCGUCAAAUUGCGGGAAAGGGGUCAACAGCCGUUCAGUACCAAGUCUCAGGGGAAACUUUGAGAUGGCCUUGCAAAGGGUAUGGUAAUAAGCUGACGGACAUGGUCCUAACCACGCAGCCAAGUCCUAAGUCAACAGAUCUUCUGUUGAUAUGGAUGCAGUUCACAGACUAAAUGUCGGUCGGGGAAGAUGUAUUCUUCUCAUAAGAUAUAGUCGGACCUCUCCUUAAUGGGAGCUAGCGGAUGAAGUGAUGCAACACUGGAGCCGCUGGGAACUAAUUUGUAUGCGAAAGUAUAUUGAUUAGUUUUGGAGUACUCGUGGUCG
assay context: 30 °C
One number for each entry.

Use these answered entries as a reference point.
# lookup: self-splicing fitness (ln) of UCCGAGCAAUAUUACGACUC
-3.61

What measured self-splicing fitness (ln) goes with UCGGAGCAAUAUUACGACGG ?
-3.56

Suppose we examine the sequence UACAAGCAAUAUUACGAACA ; what self-splicing fitness (ln) value has been reported?
-1.14

Look up self-splicing fitness (ln) for this sequence: GUCCAGCAAUAUUACGCAUA
-0.663

Batch request: self-splicing fitness (ln) per item, same order as input.
1. CCAGAGCAAUAUUACGAAAA
2. CUAAAGCAAUAUUACGAGGA
3. AGAAAGCAAUAUUACGCCAU
4. GGCAAGCAAUAUUACGUCGU
5. GCGAAGCAAUAUUACGGUAC

1: -2.94; 2: -4.32; 3: -3.16; 4: -0.68; 5: -2.89

I'm hoping you can list self-splicing fitness (ln) for every sequence here, please.
1. GCGCAGCAAUAUUACGUACU
2. AAAAAGCAAUAUUACGCCAU
3. GGCGAGCAAUAUUACGUUUU
4. CUAAAGCAAUAUUACGGACA
5. UAUUAGCAAUAUUACGGUAG

[-1.32, -2.87, -1.35, -3.1, -2.42]

// for each sequence below, give its self-splicing fitness (ln)
1. AUUGAGCAAUAUUACGGGGU
2. UGAAAGCAAUAUUACGCCCC
3. GCGUAGCAAUAUUACGCAGC
4. GCAGAGCAAUAUUACGGUGG
5. CUCAAGCAAUAUUACGUGUC
6. ACUCAGCAAUAUUACGCGAU

-3.33
-1.35
-3.61
-3.65
-3.37
-3.34

Field: self-splicing fitness (ln). Fill in for each record below.
1. UUCGAGCAAUAUUACGGACG
2. AGGCAGCAAUAUUACGGUAA

1. -1.8
2. -2.35

Dear reader, for each entry below, please note its self-splicing fitness (ln).
1. ACAUAGCAAUAUUACGUUUU
2. ACAGAGCAAUAUUACGAGAC
3. UCCUAGCAAUAUUACGAGGG
4. CAAGAGCAAUAUUACGAUAU
5. CAAUAGCAAUAUUACGAGUG

-3.76
-3.23
-2.97
-3.3
-0.279

Look at each sequence and report its self-splicing fitness (ln).
1. GAACAGCAAUAUUACGUAAG
2. ACAUAGCAAUAUUACGGCGC
3. AGAGAGCAAUAUUACGGUCG
4. AUGAAGCAAUAUUACGCUAA
5. ACUGAGCAAUAUUACGUGCC

-1.06
-1.1
-3.33
-1.32
-2.31

# per-item lookup of self-splicing fitness (ln); items listed below
1. ACGCAGCAAUAUUACGGGGA
2. GCGGAGCAAUAUUACGAACA
3. AAUGAGCAAUAUUACGCGGA
4. AAGUAGCAAUAUUACGAUCG
5. GGAUAGCAAUAUUACGAGAC
6. UGCGAGCAAUAUUACGGCCG
7. ACUGAGCAAUAUUACGAGCA
8. GGUGAGCAAUAUUACGGAGU

[-2.28, -2.71, -2.88, -1.43, -2.63, -1, -2.63, -3.25]

Below are some sequences; for each one, tell me its self-splicing fitness (ln).
1. CACAAGCAAUAUUACGCCAA
2. UUUGAGCAAUAUUACGCUUA
3. UGAAAGCAAUAUUACGCUUG
4. UCAAAGCAAUAUUACGACUA

[-2.76, -3.38, -1.8, -1.14]

Bench note: what self-splicing fitness (ln) did ACACAGCAAUAUUACGGAAA show?
-3.13
